# Test system: HT-29
# RUN_DESCRIPTION: Cytotoxicity against human HT-29 cells
# Assay type: functional
# CONDITION_SUMMARY: read-out: ED50 (the source's name)
ENDPOINT_NAME: EC50

Please review the entries below; each comes with its answer.
{"COMPOUND": "CCCCCCCCCCCCCCCCCCCC(=O)NCCc1c[nH]c2ccccc12", "EC50": "> 10 µg/mL"}
{"COMPOUND": "COc1cccc2c1C(=O)c1c(O)c3c(c(O)c1C2=O)C[C@@](O)(C(=O)CO)C[C@@H]3O[C@H]1C[C@H](N)[C@H](O)[C@H](C)O1 [DOXORUBICIN]", "EC50": "3.7 µg/mL"}
{"COMPOUND": "CCCCCCCCCCCCCCCCCCCCCCC(=O)NCCc1c[nH]c2ccccc12", "EC50": "> 10 µg/mL"}
{"COMPOUND": "CCCCCCCCCC[C@H](O)[C@H]1CC[C@H]([C@H]2CC[C@H]([C@H](O)CCCCCCCCCCCCC3=C[C@H](C)OC3=O)O2)O1 [BULLANIN]", "EC50": "1.69 µg/mL"}
{"COMPOUND": "CCCCCCCCCCCCCCCCCCCCCCCCC(=O)NCCc1c[nH]c2ccccc12", "EC50": "> 10 µg/mL"}

Provide the reported EC50 (system: HT-29) for CCCCCCCCCCCCCCCCCC(=O)NCCc1c[nH]c2ccccc12
> 10 µg/mL

Give reported EC50 for CCCCCCCCCCCCCCCCCCCCCCCCCC(=O)NCCc1c[nH]c2ccccc12 (HT-29)
> 10 µg/mL

Quote HT-29 EC50 for entry CCCCCCCCCCCCCCCCCCCCCCCC(=O)NCCc1c[nH]c2ccccc12 .
> 10 µg/mL
